Molecular target: Trx-6×His-BCL6 (human BCL6 BTB domain covering amino-acid sequence 5-129) (Homo sapiens, UniProt P41182)
Construct: made in house
Assay: HTRF assay (BCL6 / BCOR peptide)
Type: binding
Details: 1 nM Trx-6×His-BCL6, 300 nM BCOR-AF633 peptide, 2 hours incubation at room temperature; read-out: HTRF avg pIC50 (converted)
Experimental: After 2 hours incubation at room temperature the plate was read on a Pherastar FSX (BMG Labtech) plate reader equipped with 337 nm laser excitation filter, a first emission filter at 620 nm and a second emission filter at 665 nm. The % inhibition at each concentration was calculated by normalising FRET ratio to the appropriate high (DMSO with all reagents) and low (DMSO without BCL6) controls.
experimentalEndpoint: IC50 (nM)
Please state the figure in nM; there is no need to write the unit.

The recorded IC50 for `[2H]C([2H])([2H])n1c(=O)c2c(c3cc(Nc4nc(N5C6CCC5COC6)ncc4Cl)cnc31)N[C@@H](C1CC1)C(F)(F)CO2` is 1.62

GET /value?item= Cn1c(=O)c2c(c3cc(Nc4nc(N5CC(O)CC6(CCC6)C5)ncc4Cl)ccc31)N[C@@H](C1CC1)C(F)(F)CO2 (mixture of isomers) [Example 12j] &field=IC50 returns 2.63

Briefly, IC50 measured for COC1(C)CN(c2ncc(Cl)c(Nc3ccc4c(c3)c3c(c(=O)n4C)OCC(F)(F)[C@H](C4CC4)N3)n2)C1 [Example 11x] : 3.55

Lab book: IC50 of Cn1c(=O)c2c(c3cc(Nc4nc(N5CCC5)ncc4Cl)ccc31)N[C@@H](C1CC1)C(F)(F)CO2 [Example 11v] noted as 5.37

Sample `C[C@H]1CN(c2ncc(F)c(Nc3ccc4c(c3)c3c(c(=O)n4C)OCC(F)(F)[C@H](C4CC4)N3)n2)CCO1` ; IC50 observed: 10.5

# IC50 of C#CC1CCCN(c2ncc(Cl)c(Nc3ccc4c(c3)c3c(c(=O)n4C)OCC(F)(F)[C@H](C4CC4)N3)n2)C1 (stereo partly shown) = 22.9

Entry COC[C@H]1CCCN1c1ncc(Cl)c(Nc2ccc3c(c2)c2c(c(=O)n3C)OCC(F)(F)[C@H](C3CC3)N2)n1 [Example 12x45b] , IC50 reported as 4.79

For this compound ( COC1CCCN(c2ncc(Cl)c(Nc3ccc4c(c3)c3c(c(=O)n4C)OCC(F)(F)[C@H](C4CC4)N3)n2)C1 (mixture of isomers) [Example 10c] ), measured IC50 is 5.01

IC50 recorded for this compound, `Cn1c(=O)c2c(c3cc(Nc4nc(N5CCC[C@H](CO)C5)ncc4Cl)ccc31)N[C@@H](C1CC1)C(F)(F)CO2` , is 4.27

What the record says about `CN(C)c1cc(Nc2ccc3c(c2)c2c(c(=O)n3C)OCC(F)(F)[C@H](C3CC3)N2)c(Cl)cn1` : IC50 is 19.5

Looking up `Cn1c(=O)c2c(c3cc(Nc4nc(N5CCC[C@@H](CO)C5)ncc4Cl)ccc31)N[C@@H](C1CC1)C(F)(F)CO2` , I found its IC50 recorded as 2.88

// field: IC50; key: C[C@H]1C[C@@H](N)CN(c2ncc(Cl)c(Nc3ccc4c(c3)c3c(c(=O)n4C)OCC(F)(F)[C@H](C4CC4)N3)n2)C1 [Example 12c] ; value = 2.95

Form field IC50, entry CC1CC(CC(=O)N2CCC2)CN(c2ncc(Cl)c(Nc3ccc4c(c3)c3c(c(=O)n4C)OCC(F)(F)[C@H](C4CC4)N3)n2)C1 (single isomer, unassigned) [Example 12x16a] : 2.04

Recorded result, CC(=O)N1CC2CCC(C1)N2c1ncc(Cl)c(Nc2ccc3c(c2)c2c(c(=O)n3C)OCC(F)(F)[C@H](C3CC3)N2)n1 (single isomer, unassigned) , IC50: 0.776

// CC1CCCCN(c2ncc(Cl)c(Nc3ccc4c(c3)c3c(c(=O)n4C)OCC(F)(F)[C@H](C4CC4)N3)n2)C1 (mixture of isomers) [Example 11c] : IC50 value = 55

Item: CN(C)C(=O)C1CC(F)CN(c2ncc(Cl)c(Nc3ccc4c(c3)c3c(c(=O)n4C)OCC(F)(F)[C@H](C4CC4)N3)n2)C1 (stereo partly shown) | IC50: 2.51

Lab note: CC1CCN(c2ncc(Cl)c(Nc3ccc4c(c3)c3c(c(=O)n4C)OCC(F)(F)[C@H](C4CC4)N3)n2)C1CO (stereo partly shown) gave IC50 of 6.31

The value of IC50 measured for the compound CC1CCC(CO)N(c2ncc(Cl)c(Nc3ccc4c(c3)c3c(c(=O)n4C)OCC(F)(F)[C@H](C4CC4)N3)n2)C1 (stereo partly shown) turned out to be 11.7

Record summary for `C[C@H]1C[C@@H](F)CN(c2ncc(Cl)c(Nc3ccc4c(c3)c3c(c(=O)n4C)OCC(F)(F)[C@H](C4CC4)N3)n2)C1` : reported IC50 = 15.5

Lab book: IC50 of `CN(C)[C@H]1CCCN(c2ncc(Cl)c(Nc3ccc4c(c3)c3c(c(=O)n4C)OCC(F)(F)[C@H](C4CC4)N3)n2)C1` noted as 3.39

// IC50 lookup, compound = `Cn1c(=O)c2c(c3cc(Nc4nc(N5CC6(CN(CC7CC7)C6)C5)ncc4Cl)ccc31)N[C@@H](C1CC1)C(F)(F)CO2` , result: 2.75

Recorded IC50 (compound `CO[C@@H]1C[C@H](C)CN(c2ncc(Cl)c(Nc3ccc4c(c3)c3c(c(=O)n4C)OCC(F)(F)[C@H](C4CC4)N3)n2)C1` ): 3.72

Cn1c(=O)c2c(c3cc(Nc4nc(N5CC6CC5CC6(F)F)ncc4Cl)ccc31)N[C@@H](C1CC1)C(F)(F)CO2 (mixture of isomers) yielded IC50 of 11.7

IC50 recorded for this compound, `C[C@@H]1C[C@@H](O)CN(c2ncc(Cl)c(Nc3ccc4c(c3)c3c(c(=O)n4C)OCC(F)(F)[C@H](C4CC4)N3)n2)C1` , is 9.77

Just so you know, measured IC50 for CC1CCCN(c2ncc(Cl)c(Nc3ccc4c(c3)c3c(c(=O)n4C)OCC(F)(F)[C@H](C4CC4)N3)n2)C1CO (mixture of isomers) came out at 11.2
